Values compiled from the supplement of paper PMC11061612.

- Tested on: NCI-H2066 (Squamous Cell Lung Carcinoma);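 also: after 72 h of two-drug dosing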
- runDescription: Bliss excess, mean over the matrix (fraction); higher = more synergy
Parameter threshold = -0.06. Response is Y when Bliss excess meets or exceeds it, else N.

Answered cases to consult:
CC1(C)CCC(CN2CCN(c3ccc(C(=O)NS(=O)(=O)c4ccc(NCC5CCOCC5)c([N+](=O)[O-])c4)c(Oc4cnc5[nH]ccc5c4)c3)CC2)=C(c2ccc(Cl)cc2)C1 [Venetoclax] + Cc1cc2ncnn2cc1Nc1ncc2c(n1)n(C1CCOCC1)c(=O)n2C [AZD7648] (first compound max 1 µM, 7x7, partner max 10 µM): Y
CC(=O)c1c(C)c2cnc(Nc3ccc(N4CCNCC4)cn3)nc2n(C2CCCC2)c1=O [Palbociclib] + Cc1c2c(nn1C)CSCc1cc(n(C)n1)CSc1cc(c3ccccc3c1)OCCCc1c(C(=O)O)n(C)c3c-2c(Cl)ccc13 [AZD5991] (first compound max 10 µM, 7x7, partner max 1 µM): Y
CN(C)CCCOc1ccc(-c2ccc3ncc4c(c3c2)n(C2CCOCC2)c(=O)n4C)cn1 [AZD0156] + O=C(c1cc(Cc2n[nH]c(=O)c3ccccc23)ccc1F)N1CCN(C(=O)C2CC2)CC1 [Olaparib] (first compound max 3 µM, partner max 3 µM): Y

Could you tell me if the measured Bliss excess of Cc1cc2ncnn2cc1Nc1ncc2c(n1)n(C1CCOCC1)c(=O)n2C [AZD7648] + CCN(CCO)CCCOc1ccc2c(Nc3cc(CC(=O)Nc4cccc(F)c4)[nH]n3)ncnc2c1 [AZD2811] (first compound max 10 µM, 7x7, partner max 1 µM) reaches -0.06 or more? Y

And for CN(C)CCCOc1ccc(-c2ccc3ncc4c(c3c2)n(C2CCOCC2)c(=O)n4C)cn1 [AZD0156] + CCN(CCO)CCCOc1ccc2c(Nc3cc(CC(=O)Nc4cccc(F)c4)[nH]n3)ncnc2c1 [AZD2811] (first compound max 1 µM, 7x7, partner max 1 µM) ? N

Then NC1(C(=O)N[C@@H](CCO)c2ccc(Cl)cc2)CCN(c2ncnc3[nH]ccc23)CC1 [Capivasertib] + Cn1cnc2c(F)c(Nc3ccc(Br)cc3Cl)c(C(=O)NOCCO)cc21 [Selumetinib] (first compound max 10 µM, 7x7, partner max 10 µM) ? N

One more compound: CN(CCO)CC[C@H](CSc1ccccc1)Nc1ccc(S(=O)(=O)NC(=O)c2ccc(N3CCC([C@@H](O)c4ccccc4-c4ccc(Cl)cc4)CC3)cc2)cc1S(=O)(=O)C(F)(F)F [AZD4320] + C[C@@H](Nc1cc(F)cc(F)c1)c1cc(C(=O)N(C)C)cc2c(=O)cc(N3CCOCC3)oc12 [AZD8186] (first compound max 1 µM, 7x7, partner max 3 µM) N
